// reported MCHC per item
Organism: Rattus norvegicus
Assay: Open TG-GATES - Regimen: Single
Format: toxicity, organism-based, Sprague-Dawley
Set-up: regimen Single, gender Male, age 6 weeks
Conditions: in vivo, po, 300 mg/kg, 9 h, tissue Blood, route gavage, dose level Middle
Metric name: MCHC

• O=C(OC[C@H]1O[C@@H](OC(=O)c2cc(O)c(O)c(OC(=O)c3cc(O)c(O)c(O)c3)c2)[C@H](OC(=O)c2cc(O)c(O)c(OC(=O)c3cc(O)c(O)c(O)c3)c2)[C@@H](OC(=O)c2cc(O)c(O)c(OC(=O)c3cc(O)c(O)c(O)c3)c2)[C@@H]1OC(=O)c1cc(O)c(O)c(OC(=O)c2cc(O)c(O)c(O)c2)c1)c1cc(O)c(O)c(OC(=O)c2cc(O)c(O)c(O)c2)c1 [TANNIC ACID] = 33.3%
• Cc1nnc2n1-c1ccc(Cl)cc1C(c1ccccc1Cl)=NC2 [TRIAZOLAM] = 32.8%
• CN/C(=N/CCSCc1nc[nH]c1C)NC#N [CIMETIDINE] = 34.5%
• CNC(=C[N+](=O)[O-])NCCSCc1ccc(CN(C)C)o1 [RANITIDINE] = 34.7%
• COC(=O)C1=C(C)NC(C)=C(C(=O)OC)C1c1ccccc1[N+](=O)[O-] [NIFEDIPINE] = 33%

----------
Species on record: Rattus norvegicus
Assay: Open TG-GATES - Regimen: Daily Repeat
Assay type: toxicity, organism-based, Sprague-Dawley
Parameters: regimen Daily Repeat, gender Male, age 6 weeks
Conditions: in vivo, po, 0 mg/kg, […], tissue Plasma, route gavage, dose level Control, time 7 day
PL listing for selected molecules.
Metric name: PL (mg/dL)

• Cc1nnc2n1-c1ccc(Cl)cc1C(c1ccccc1Cl)=NC2 [TRIAZOLAM] = 161.6
• CCCc1cc(=O)[nH]c(=S)[nH]1 [PROPYLTHIOURACIL] = 158.4
• CN/C(=N/CCSCc1nc[nH]c1C)NC#N [CIMETIDINE] = 156.4

----------
Species: Rattus norvegicus
Assay: Open TG-GATES - Regimen: Daily Repeat
Format: toxicity, organism-based, Sprague-Dawley
Design: regimen Daily Repeat, gender Male, age 6 weeks
Conditions: in vivo, po, 300 mg/kg, […], tissue Plasma, route gavage, dose level Middle, time 14 day
gamma-GTP: recorded values
Metric name: gamma-GTP (IU/L)

* Cc1nnc2n1-c1ccc(Cl)cc1C(c1ccccc1Cl)=NC2 [TRIAZOLAM] | 1.2
* O=C(OC[C@H]1O[C@@H](OC(=O)c2cc(O)c(O)c(OC(=O)c3cc(O)c(O)c(O)c3)c2)[C@H](OC(=O)c2cc(O)c(O)c(OC(=O)c3cc(O)c(O)c(O)c3)c2)[C@@H](OC(=O)c2cc(O)c(O)c(OC(=O)c3cc(O)c(O)c(O)c3)c2)[C@@H]1OC(=O)c1cc(O)c(O)c(OC(=O)c2cc(O)c(O)c(O)c2)c1)c1cc(O)c(O)c(OC(=O)c2cc(O)c(O)c(O)c2)c1 [TANNIC ACID] | 1.4
* CN/C(=N/CCSCc1nc[nH]c1C)NC#N [CIMETIDINE] | 1
* CNC(=C[N+](=O)[O-])NCCSCc1ccc(CN(C)C)o1 [RANITIDINE] | 1
* COC(=O)C1=C(C)NC(C)=C(C(=O)OC)C1c1ccccc1[N+](=O)[O-] [NIFEDIPINE] | 1
* CCOc1ccc(NC(C)=O)cc1 [PHENACETIN] | 1

----------
Species: Rattus norvegicus
Experiment: Open TG-GATES - Regimen: Daily Repeat
Format: toxicity, organism-based, Sprague-Dawley
Parameters: regimen Daily Repeat, gender Male, age 6 weeks
Conditions: in vivo, po, 0 mg/kg, 72 h, tissue Blood, route gavage, dose level Control, time 3 day
Metric name: MCV (fL)

• COC(=O)C1=C(C)NC(C)=C(C(=O)OC)C1c1ccccc1[N+](=O)[O-] = 64.2
• NC1=NC(=O)C(c2ccccc2)O1 (stereo not drawn) = 64.3
• CC(C)NNC(=O)c1ccncc1 = 61.3
• Brc1ccccc1 = 62.4
• Nc1c2c(nc3ccccc13)CCCC2 = 60.4
• O=C(OC[C@H]1O[C@@H](OC(=O)c2cc(O)c(O)c(OC(=O)c3cc(O)c(O)c(O)c3)c2)[C@H](OC(=O)c2cc(O)c(O)c(OC(=O)c3cc(O)c(O)c(O)c3)c2)[C@@H](OC(=O)c2cc(O)c(O)c(OC(=O)c3cc(O)c(O)c(O)c3)c2)[C@@H]1OC(=O)c1cc(O)c(O)c(OC(=O)c2cc(O)c(O)c(O)c2)c1)c1cc(O)c(O)c(OC(=O)c2cc(O)c(O)c(O)c2)c1 = 65.2
• CN1C(=O)CCS(=O)(=O)C1c1ccc(Cl)cc1 (stereo not drawn) = 64.3
• CCCc1cc(=O)[nH]c(=S)[nH]1 = 65.5
• Cc1nnc2n1-c1ccc(Cl)cc1C(c1ccccc1Cl)=NC2 = 62.7
• CN(C)CCC(c1ccc(Cl)cc1)c1ccccn1 (stereo not drawn) = 64.2
• CN/C(=N/CCSCc1nc[nH]c1C)NC#N = 63.1
• CNC(=C[N+](=O)[O-])NCCSCc1ccc(CN(C)C)o1 = 64.2
• CCOc1ccc(NC(C)=O)cc1 = 63.4

----------
Each entry below lists one item and its recorded gamma-GTP value.
Species on record: Rattus norvegicus
Test: Open TG-GATES - Regimen: Single
Type: toxicity, organism-based, Sprague-Dawley
Design: regimen Single, gender Male, age 6 weeks
Conditions: in vivo, po, 100 mg/kg, 6 h, tissue Plasma, route gavage, dose level Low
Metric name: gamma-GTP (IU/L)

* CN/C(=N/CCSCc1nc[nH]c1C)NC#N | 1.8
* COC(=O)C1=C(C)NC(C)=C(C(=O)OC)C1c1ccccc1[N+](=O)[O-] | 1.2
* Cc1nnc2n1-c1ccc(Cl)cc1C(c1ccccc1Cl)=NC2 | 1.2
* CNC(=C[N+](=O)[O-])NCCSCc1ccc(CN(C)C)o1 | 1.4
* O=C(OC[C@H]1O[C@@H](OC(=O)c2cc(O)c(O)c(OC(=O)c3cc(O)c(O)c(O)c3)c2)[C@H](OC(=O)c2cc(O)c(O)c(OC(=O)c3cc(O)c(O)c(O)c3)c2)[C@@H](OC(=O)c2cc(O)c(O)c(OC(=O)c3cc(O)c(O)c(O)c3)c2)[C@@H]1OC(=O)c1cc(O)c(O)c(OC(=O)c2cc(O)c(O)c(O)c2)c1)c1cc(O)c(O)c(OC(=O)c2cc(O)c(O)c(O)c2)c1 | 1.2

----------
Species on record: Rattus norvegicus
Test: Open TG-GATES - Regimen: Daily Repeat
Assay type: toxicity, organism-based, Sprague-Dawley
Parameters: regimen Daily Repeat, gender Male, age 6 weeks
Conditions: in vivo, po, 300 mg/kg, […], tissue Plasma, route gavage, dose level Middle, time 14 day
Metric name: Ca (mg/dL)

• O=C(OC[C@H]1O[C@@H](OC(=O)c2cc(O)c(O)c(OC(=O)c3cc(O)c(O)c(O)c3)c2)[C@H](OC(=O)c2cc(O)c(O)c(OC(=O)c3cc(O)c(O)c(O)c3)c2)[C@@H](OC(=O)c2cc(O)c(O)c(OC(=O)c3cc(O)c(O)c(O)c3)c2)[C@@H]1OC(=O)c1cc(O)c(O)c(OC(=O)c2cc(O)c(O)c(O)c2)c1)c1cc(O)c(O)c(OC(=O)c2cc(O)c(O)c(O)c2)c1 [TANNIC ACID] = 10.7
• Cc1nnc2n1-c1ccc(Cl)cc1C(c1ccccc1Cl)=NC2 [TRIAZOLAM] = 10.8
• COC(=O)C1=C(C)NC(C)=C(C(=O)OC)C1c1ccccc1[N+](=O)[O-] [NIFEDIPINE] = 10.9
• CN/C(=N/CCSCc1nc[nH]c1C)NC#N [CIMETIDINE] = 10.5
• CNC(=C[N+](=O)[O-])NCCSCc1ccc(CN(C)C)o1 [RANITIDINE] = 10.6
• CCOc1ccc(NC(C)=O)cc1 [PHENACETIN] = 10.7

----------
Property: KIDNEY_TOTAL; scope: individual compounds
Organism: Rattus norvegicus
Experiment: Open TG-GATES - Regimen: Single
Type: toxicity, organism-based, Sprague-Dawley
Parameters: regimen Single, gender Male, age 6 weeks
Settings: in vivo, po, 0 mg/kg, 3 h, tissue Kidney, route gavage, dose level Control
Metric name: KIDNEY_TOTAL (g)

• CN(C)CCC(c1ccc(Cl)cc1)c1ccccn1 (stereo not given) = 1.7
• CCOc1ccc(NC(C)=O)cc1 = 1.8
• Nc1c2c(nc3ccccc13)CCCC2 = 1.8
• CS(=O)(=O)O.Cc1ccc(NC(=O)c2ccc(CN3CCN(C)CC3)cc2)cc1Nc1nccc(-c2cccnc2)n1 [IMATINIB MESYLATE] = 1.7
• COC(=O)C1=C(C)NC(C)=C(C(=O)OC)C1c1ccccc1[N+](=O)[O-] = 1.8
• CNC(=C[N+](=O)[O-])NCCSCc1ccc(CN(C)C)o1 = 1.9
• CN/C(=N/CCSCc1nc[nH]c1C)NC#N = 2
• CN1C(=O)CCS(=O)(=O)C1c1ccc(Cl)cc1 (stereo not given) = 2
• CC(C)NNC(=O)c1ccncc1 = 1.9
• CCCc1cc(=O)[nH]c(=S)[nH]1 = 1.7
